src = patent US8293774B2

Reported values of pest or weed control at 200 g/ha for individual entries
# System: DIGSA (Digitaria Sanguinalis (L.) SCOP, large crabgrass)
# ASSAY_EXPLANATION: Weed control test, foliage treatment (Test Example 1, Table 7)
# Format: in vivo
# STATED_CONDITIONS: Digitaria sanguinalis, foliar, 0.2 kg/ha, read-out: Plant damage (herbicidal activity), visually evaluated, DIGSA

Use these answered entries as a reference point.
Cc1ccc2nc(N(C)C(=O)[C@@H](C)Oc3ccc(Oc4ccc(C#N)cc4F)cc3)sc2c1 ... 0%
C[C@@H](Oc1ccc(C(F)=C(c2ccccc2)C(F)(F)F)cc1)C(=O)Nc1nc2cc(Cl)ccc2o1 ... 0%
C[C@@H](Oc1ccc(Oc2ccc(C#N)cc2F)cc1)C(=O)Nc1nc2ccc(Cl)cc2s1 ... 90%
C[C@@H](Oc1ccc(Oc2nc3ccc(Cl)cc3o2)cc1)C(=O)Nc1nc2ccccc2s1 ... 100%

Let me check: C[C@@H](Oc1ccc(Oc2nc3ccc(Cl)cc3o2)cc1)C(=O)N(C)c1nc2ccccc2s1 , system DIGSA (Digitaria Sanguinalis (L.) SCOP, large crabgrass), measured pest or weed control at 200 g/ha is 70%

Fill in: DIGSA (Digitaria Sanguinalis (L.) SCOP, large crabgrass) pest or weed control at 200 g/ha for COc1ccc2nc(N(C)C(=O)[C@@H](C)Oc3ccc(Oc4nc5ccc(Cl)cc5o4)cc3)sc2c1 = 70%

Observed pest or weed control at 200 g/ha, DIGSA (Digitaria Sanguinalis (L.) SCOP, large crabgrass), C[C@@H](Oc1ccc(Oc2nc3ccc(Cl)cc3o2)cc1)C(=O)Nc1nc2cc(Cl)ccc2o1 : 100%

Tested system DIGSA (Digitaria Sanguinalis (L.) SCOP, large crabgrass); pest or weed control at 200 g/ha recorded for COc1ccc2nc(NC(=O)[C@@H](C)Oc3ccc(Oc4ccc(C#N)cc4F)cc3)sc2c1 was 90%
